Data origin, for the record: the METLIN SMRT retention time set (Domingo-Almenara et al. 2019)

test: gradient 5% acetonitrile 3 min, to 50% in 2 min, to 85% in 15 min, held 3 min, 100 µL/min; conditions: column: Zorbax Extend-C18 2.1 x 50 mm; eluents: water / acetonitrile, 0.1% formic acid
# Lookup of reported RP-LC retention time keyed by entry
Value expressed in s; do not type the unit.

These solved cases illustrate the format of a correct answer.
CCOc1ccc(-c2cc(=O)n(CCCC(=O)Nc3ccc(-n4cnnn4)cc3)cn2)cc1 | 696
COCCn1c(=O)c2cc(C(=O)Nc3ccccc3)nn2c2ccccc21 | 714
Cc1nn(CC(=O)O)c(=O)c2nc(-c3ccccc3)sc12 | 701
O=C(O)c1cc(=O)c2cc(Cl)ccc2[nH]1 | 692

Now, please, on to the next molecule.
Prompt line: Give reported RP-LC retention time value for CCn1cc(CCN2CCN(S(=O)(=O)c3cc(C)cc(C)c3)CC2)c2cccnc21
Response line: 698

###

assay: gradient 5% acetonitrile 3 min, to 50% in 2 min, to 85% in 15 min, held 3 min, 100 µL/min; conditions: column: Zorbax Extend-C18 2.1 x 50 mm; eluents: water / acetonitrile, 0.1% formic acid
value kind: RP-LC retention time (s)
Enter your answer as a number in s; do not include the unit.

Example entries and their recorded answers appear below.
COc1cc(OC)cc(C(=O)N2CCc3cn(C)c4cccc(c34)C2)c1 | 952
COc1ccc(-c2noc(C3CCCN3C(=O)c3ccc(C)cc3)n2)cc1 (stereo unspecified) | 1010
Cc1c(NS(=O)(=O)CCOc2ccccc2)c(=O)n(-c2ccccc2)n1C | 729
Cc1ccc(NC(=O)Cn2c(=O)n(-c3ccccc3)c(=O)c3c2cc(C)n3C)c(Cl)c1 | 927
Cc1ccc(-n2c(=O)c3c(cc(C)n3C)n(CC(=O)Nc3ccc(C)cc3Cl)c2=O)cc1 | 960

Consider the additional molecule presented here.
Prompt line: Using known records, supply RP-LC retention time for Cc1cc(N2CCN(C(=O)Nc3ccc(C)c(Cl)c3)CC2)nc(N2CCCC2)n1
Response line: 747

###

test: gradient 5% acetonitrile 3 min, to 50% in 2 min, to 85% in 15 min, held 3 min, 100 µL/min; conditions: column: Zorbax Extend-C18 2.1 x 50 mm; eluents: water / acetonitrile, 0.1% formic acid
Binning rule for recorded RP-LC retention time: low range (below 700 s), mid range (700 s to below 1000 s), high range (1000 s or more)

Solved cases below.
CCOc1ccc(NC(=O)Cn2ncc3c(c2=O)N(C2CC2)C(=O)CS3)cc1 | low range
O=C(NCC1CCCO1)c1ccc(-c2ccc(N3CCCCC3)nc2)cc1 (configuration not stated) | low range
Clc1ccc(Cn2c(CN3CCCC3)nc3ccccc32)cc1 | mid range
COc1cccc(CNC(=O)N2CCC3(CC2)NC(=O)c2ccccc2O3)c1 | mid range
COc1cc(C(=O)NCC(c2ccc3c(c2)OCO3)N2CCOCC2)cc(OC)c1OC (configuration not stated) | low range

Prompt line: Lab note: sort O=S(=O)(c1ccccc1F)N1CCc2nc(-c3ccc(Cl)cc3)ncc2C1 into the matching RP-LC retention time band.
Response line: high range

Prompt line: Class label required: CC1CN=C2C=C(N3CCN(C(=O)NCc4cccc(F)c4)CC3)N=CN21 (configuration not stated)
Response line: low range

Prompt line: Band for COC(=O)c1ccc2c(=O)n(-c3ccccc3)c(N3CCCCCC3)nc2c1 ?
Response line: high range

Prompt line: Input COC[C@@H]1CN(C(=O)c2ccoc2C)C[C@H]1c1nc(C2CC2)no1 ; output its category
Response line: low range

Prompt line: Class? Entry: COc1cccc(CNC(=O)N2CCCC2c2cc(C(C)C)no2)c1 (configuration not stated)
Response line: mid range

Prompt line: Which of the defined bands does the recorded RP-LC retention time of O=S(=O)(Nc1ccc(-c2noc(COc3ccc(Cl)cc3)n2)cc1)c1cccs1 sit within?
Response line: high range

Prompt line: Class? Entry: CCN(CCNC(=O)c1cccc2c1SCCC2=O)Cc1ccccc1
Response line: low range

Prompt line: Pick a category. Item: CCc1nnc2ccc(-c3noc(-c4c(F)cccc4F)n3)cn12
Response line: mid range
